Test system: thiopental-induced anesthesia
Assay type: in vivo, mouse (ddY-strain male)
RUN CONDITIONS: p.o.; 60 mg/10 ml/kg, 1 hour before i.v. thiopental sodium; control 1.00
Define the label as fulfilled when The ratio of the elongation on the anesthetic time induced by thiopental is strictly less than 0.9 and as not fulfilled in all remaining cases.

MOLECULE | TEST TARGET | QUALITATIVE LABEL
NC(=O)CCCN1CCC(OC(c2ccc(Cl)cc2)c2ccccn2)CC1.O=C(O)/C=C\C(=O)O (stereo not drawn) | thiopental-induced anesthesia | fulfilled
Clc1ccc(C(OC2CCN(CCSc3nc4ccccc4o3)CC2)c2ccccn2)cc1.O=C(O)/C=C/C(=O)O (stereo not drawn) | thiopental-induced anesthesia | not fulfilled
O=C(CCCN1CCC(OC(c2ccc(Cl)cc2)c2ccccn2)CC1)c1ccccc1 (stereo not drawn) | thiopental-induced anesthesia | not fulfilled
CC(=O)CCCN1CCC(OC(c2ccc(Cl)cc2)c2ccccn2)CC1.O=C(O)/C=C/C(=O)O (stereo not drawn) | thiopental-induced anesthesia | fulfilled
O=c1[nH]c2ccccc2n1CCCN1CCN(C(c2ccccc2)c2ccccc2)CC1 [Oxatomide, reference compound] | thiopental-induced anesthesia | not fulfilled

###

Test system: thiopental-induced anesthesia
Type: in vivo, mouse (ddY-strain male)
RUN CONDITIONS: p.o.; 60 mg/10 ml/kg, 1 hour before i.v. thiopental sodium; control 1.00
READOUT NAME: The ratio of the elongation on the anesthetic time induced by thiopental

MOLECULE | MEASURED NUMBER
Clc1ccc(C(OC2CCN(CCNc3nc4ccccc4o3)CC2)c2ccccn2)cc1.O=C(O)/C=C/C(=O)O (stereo not shown) | 0.88
CCOC(=O)CCCN1CCC(OC(c2ccccc2)c2ccccc2)CC1.O=C(O)/C=C/C(=O)O | 0.90
CCOC(=O)CCCN1CCC(OC(c2ccc(Cl)cc2)c2ccccn2)CC1.Cc1ccc(S(=O)(=O)O)cc1 (stereo not shown) | 1.19
CCOC(=O)C=CCN1CCC(OC(c2ccc(Cl)cc2)c2ccccn2)CC1 (stereo not shown) | 1.14

###

ASSAY TEXT: toxicity test in mice by oral administration
RUN CONDITIONS: in vivo, male mouse

MOLECULE | LD50 [mg/kg]
Clc1ccc(C(OC2CCN(CCSc3nc4ccccc4o3)CC2)c2ccccn2)cc1.O=C(O)/C=C/C(=O)O (stereo not drawn) | 1700
CCOC(=O)CCCN1CCC(OC(c2ccc(Cl)cc2)c2ccccn2)CC1.Cc1ccc(S(=O)(=O)O)cc1 (stereo not drawn) | 2200
Clc1ccc(C(OC2CCN(CCNc3nc4ccccc4o3)CC2)c2ccccn2)cc1.O=C(O)/C=C/C(=O)O (stereo not drawn) | 740

###

Measured The ratio of the elongation on the anesthetic time induced by thiopental, listed per entry.
System: thiopental-induced anesthesia
Format: in vivo, mouse (ddY-strain male)
RUN CONDITIONS: i.p.; 60 mg/10 ml/kg, 20 minutes before i.v. thiopental sodium; control 1.00
READOUT NAME: The ratio of the elongation on the anesthetic time induced by thiopental

MOLECULE | RESULT
Clc1ccc(C(OC2CCN(CCSc3nc4ccccc4o3)CC2)c2ccccn2)cc1 (stereo not shown) [Compound A] | 0.89
Clc1ccc(C(OC2CCN(CCSc3nc4ccccc4s3)CC2)c2ccccn2)cc1 (stereo not shown) [Compound E] | 1.02
Clc1ccc(C(OC2CCN(CCCSc3nc4ccccc4o3)CC2)c2ccccn2)cc1 (stereo not shown) [Compound C] | 0.91
Clc1ccc(C(OC2CCN(CCCSc3nc4ccccc4s3)CC2)c2ccccn2)cc1 (stereo not shown) [Compound F] | 1.73
